// provenance: ChEMBL document CHEMBL5523702

protocol-description: Plasma protein binding in mouse assessed as unbound fraction
Format: ADME, cell-free
reported-property: fraction unbound
One number for each entry.

For the compound O=C1CN(c2c(O)cc3c(c2F)CCN(CC2CC2)CC3)S(=O)(=O)N1 , give its reported fraction unbound. 0.801

Please give the documented fraction unbound of CN1CCc2cc(O)c(N3CC(=O)NS3(=O)=O)c(F)c2CC1 0.852

Please report fraction unbound for the following compound: CCN1CCc2cc(O)c(N3CC(=O)NS3(=O)=O)c(F)c2CC1 0.884

// switching to the query compound
Report measured fraction unbound; entry is CC(C)CCN[C@@H]1CCc2cc(O)c(N3CC(=O)NS3(=O)=O)c(F)c2C1 [OSUNPROTAFIB] 0.978

====

protocol-description: AUC (0 to t) in mouse at 10 mg/kg, po
Assay type: ADME, organism-based
stated-conditions: in vivo
reported-property: AUC(0-t) (ng·h/mL)
Give bare numbers, in ng·h/mL.

Known results for compounds:
Entry O=C1CN(c2c(O)cc3c(c2F)CCN(CCCC2CC2)CC3)S(=O)(=O)N1 needs its AUC(0-t) filled in; supply it. 3480

Please list AUC(0-t) recorded for the compound CC1Cc2c(cc(O)c(N3CC(=O)NS3(=O)=O)c2F)CCN1 (racemic) 1360

Please turn your attention to the following entry.
Note down AUC(0-t) recorded for O=C1CN(c2c(O)cc3c(c2F)CCN(CC2CC2)CC3)S(=O)(=O)N1 5140
